Ref: patent US7153876B2

- Tested System: human factor VIIa and TF (factor VIIa/TF) (Homo sapiens, UniProt P08709)
- Construct: human factor VIIa and TF (5 nM and 10 nM, respective final concentration)
- Sequence (P08709 61-212 limits assumed): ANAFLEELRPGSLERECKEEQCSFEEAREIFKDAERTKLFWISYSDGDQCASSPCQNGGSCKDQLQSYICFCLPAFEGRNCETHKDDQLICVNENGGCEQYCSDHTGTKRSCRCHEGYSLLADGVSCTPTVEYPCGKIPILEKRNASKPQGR
- Sequence (P08709 213-466 limits assumed): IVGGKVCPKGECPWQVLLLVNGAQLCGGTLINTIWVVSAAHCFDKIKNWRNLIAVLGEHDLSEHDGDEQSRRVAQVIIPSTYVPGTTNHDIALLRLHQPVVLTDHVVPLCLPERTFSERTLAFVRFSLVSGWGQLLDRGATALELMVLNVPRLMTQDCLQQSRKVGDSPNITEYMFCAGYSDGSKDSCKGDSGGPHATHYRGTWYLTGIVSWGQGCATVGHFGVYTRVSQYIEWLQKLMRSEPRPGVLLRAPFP
- Sequence (P13726 33-295 partner): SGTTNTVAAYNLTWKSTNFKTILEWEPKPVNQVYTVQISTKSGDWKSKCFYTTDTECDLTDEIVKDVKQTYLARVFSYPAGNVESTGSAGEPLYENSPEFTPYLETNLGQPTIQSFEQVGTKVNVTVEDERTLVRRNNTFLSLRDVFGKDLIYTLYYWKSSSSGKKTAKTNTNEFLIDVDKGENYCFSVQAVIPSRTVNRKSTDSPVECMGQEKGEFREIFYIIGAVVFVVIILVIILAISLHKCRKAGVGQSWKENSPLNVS
- Experimental Details: Factor VIIa (FVIIa) chromogenic assay
- Assay Setup: inhibition constant towards factor VIIa/TF activity; chromogenic substrate S-2288 500 μM; 25° C.; 15 minute preincubation; factor VIIa 5 nM, TF 10 nM
pKi: −log10 of the molar value.
# if value of pKi reaches 5, tag yes (1); if it stays below, tag no (0)

1. N=C(N)c1ccc(NC(=O)C(C(=O)NCc2c(Cl)cccc2Oc2ccccc2)c2ccccc2)cc1 (stereo not shown) = yes (1)
2. C[C@H](NC(=O)CC(=O)Nc1ccc(C(=N)N)cc1)c1ccc2ccccc2c1 = yes (1)
3. C[C@H](NC(=O)C(C(=O)Nc1ccc(C(=N)N)cc1)c1ccccc1)c1cccc(Br)c1 (stereo partly shown) = yes (1)
4. N=C(N)c1ccc(NC(=O)C(C(=O)OCc2ccccc2)c2ccccc2)cc1 (stereo not shown) = no (0)
5. C[C@H](NC(=O)C(C(=O)Nc1ccc(C(=N)N)cc1)c1ccccc1)c1ccc2ccccc2c1 (stereo partly shown) = yes (1)
6. C[C@H](NC(=O)C(C(=O)Nc1ccc(C(=N)N)cc1)c1ccccc1)c1ccc(Br)cc1 (stereo partly shown) = yes (1)
7. COc1ccc(CNC(=O)C(C(=O)Nc2ccc(C(=N)N)cc2)c2ccccc2)cc1OC (stereo not shown) = no (0)
